Origin of values: patent US20230374084A1

target: NaV1.6 (Homo sapiens, UniProt Q9UQD0); construct: expressed in transfected cells; host or cells: HEK293 cells stably expressing NaV1.6; test: Whole-cell patch-clamp electrophysiology in HEK293 cells stably expressing NaV1.6 (HEK-NaV1.6); type: cell-based; settings: HEK-NaV1.6 cells, 500 nM peptide vs control
Sequence (Q9UQD0 whole entry): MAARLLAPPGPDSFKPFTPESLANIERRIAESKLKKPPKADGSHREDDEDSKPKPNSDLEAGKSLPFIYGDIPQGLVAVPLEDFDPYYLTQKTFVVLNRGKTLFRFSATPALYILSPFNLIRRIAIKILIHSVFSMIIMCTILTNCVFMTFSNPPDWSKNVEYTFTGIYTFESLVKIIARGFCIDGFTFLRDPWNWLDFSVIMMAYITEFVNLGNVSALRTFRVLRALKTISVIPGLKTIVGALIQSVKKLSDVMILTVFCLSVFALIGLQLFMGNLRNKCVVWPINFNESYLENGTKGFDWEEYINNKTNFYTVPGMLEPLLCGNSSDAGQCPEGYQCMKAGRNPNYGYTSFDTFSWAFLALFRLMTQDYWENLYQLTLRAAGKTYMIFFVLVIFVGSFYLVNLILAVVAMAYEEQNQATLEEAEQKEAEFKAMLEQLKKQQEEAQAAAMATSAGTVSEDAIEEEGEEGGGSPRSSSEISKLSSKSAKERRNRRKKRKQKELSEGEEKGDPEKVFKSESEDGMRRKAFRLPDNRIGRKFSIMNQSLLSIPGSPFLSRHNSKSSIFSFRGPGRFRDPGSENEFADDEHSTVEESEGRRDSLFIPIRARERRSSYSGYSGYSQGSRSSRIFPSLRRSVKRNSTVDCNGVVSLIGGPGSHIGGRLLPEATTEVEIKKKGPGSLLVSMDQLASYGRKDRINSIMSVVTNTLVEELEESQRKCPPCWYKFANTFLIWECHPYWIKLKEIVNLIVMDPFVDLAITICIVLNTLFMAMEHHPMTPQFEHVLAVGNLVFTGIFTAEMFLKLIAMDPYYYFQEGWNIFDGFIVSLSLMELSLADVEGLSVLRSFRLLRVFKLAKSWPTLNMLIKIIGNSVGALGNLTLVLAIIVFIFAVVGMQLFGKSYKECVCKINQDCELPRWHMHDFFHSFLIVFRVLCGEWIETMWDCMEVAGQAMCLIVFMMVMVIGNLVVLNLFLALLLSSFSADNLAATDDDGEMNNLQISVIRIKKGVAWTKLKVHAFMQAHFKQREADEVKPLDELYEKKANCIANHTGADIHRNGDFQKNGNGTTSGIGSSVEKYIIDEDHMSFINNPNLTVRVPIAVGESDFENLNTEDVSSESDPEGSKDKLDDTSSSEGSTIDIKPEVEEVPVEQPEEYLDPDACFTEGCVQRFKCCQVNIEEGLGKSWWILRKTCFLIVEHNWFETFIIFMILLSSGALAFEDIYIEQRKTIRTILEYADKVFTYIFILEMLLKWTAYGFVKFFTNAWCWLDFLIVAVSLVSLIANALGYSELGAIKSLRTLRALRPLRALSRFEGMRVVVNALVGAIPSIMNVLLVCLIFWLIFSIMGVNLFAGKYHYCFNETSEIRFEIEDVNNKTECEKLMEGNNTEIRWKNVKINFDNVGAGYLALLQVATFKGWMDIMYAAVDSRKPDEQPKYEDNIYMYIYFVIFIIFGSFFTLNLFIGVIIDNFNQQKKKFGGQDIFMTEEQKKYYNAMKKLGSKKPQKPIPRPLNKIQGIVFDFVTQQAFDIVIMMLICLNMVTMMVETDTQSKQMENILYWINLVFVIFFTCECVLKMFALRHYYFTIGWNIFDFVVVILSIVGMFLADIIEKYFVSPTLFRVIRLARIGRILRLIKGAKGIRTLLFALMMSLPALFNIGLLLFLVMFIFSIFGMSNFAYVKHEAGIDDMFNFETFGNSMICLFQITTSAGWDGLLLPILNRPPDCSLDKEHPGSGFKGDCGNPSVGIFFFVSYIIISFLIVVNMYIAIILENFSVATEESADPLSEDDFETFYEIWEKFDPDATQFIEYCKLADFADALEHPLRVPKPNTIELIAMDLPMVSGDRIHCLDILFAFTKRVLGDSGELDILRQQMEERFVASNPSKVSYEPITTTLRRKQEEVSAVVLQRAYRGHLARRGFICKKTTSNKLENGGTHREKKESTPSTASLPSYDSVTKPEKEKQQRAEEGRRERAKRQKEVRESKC
result-type: effect on NaV1.6 currents

* DCLGLFRKCIPDMLKCCRFNLVCSRLHKWCKYVF (Synthetic Peptide 3) | suppressed
* SDEIPATFGGGTDAGL (Synthetic Peptide 1) | suppressed

----------
target: NaV1.6 (Homo sapiens, UniProt Q9UQD0); construct: expressed in transfected cells; host or cells: HEK293 cells stably expressing NaV1.6; experiment: Whole-cell patch-clamp electrophysiology in HEK293 cells stably expressing NaV1.6 (HEK-NaV1.6); assay type: cell-based; conditions: HEK-NaV1.6 cells, 500 nM peptide; mean ± SEM (n)
Marks after values point to notes of the source that are not given here.
Measured Peak current density, Nav1.6 (Treatment) by item

// solved cases for Peak current density, Nav1.6 (Treatment) follow
* IGEKVTIRLITSTNINDDFNIYQQKPGEPPKLL (Synthetic Peptide 7) | 121.14 ± 16.6 (10)^c
* DCLGLFRKCIPDMLKCCRFNLVCSRLHKWCKYVF (Synthetic Peptide 3) | 25.32 ± 4.1 (6)^b
* DCLGFMRKCLSTTDLDDDWNCCRPNLVCSRTHKWCKYVF (Synthetic Peptide 8) | 59.75 ± 5.4 (6)^NS

Please find the next sequence below.
Q: Bench note: what Peak current density, Nav1.6 (Treatment) did SDEIPATFGGGTDAGL (Synthetic Peptide 1) show?
A: 25.65 ± 5.2 (13)^a

----------
molecular target: human NaV1.5 channel (Homo sapiens, UniProt Q14524); construct: expressed in transfected cells; host or cells: HEK293 cells stably expressing human NaV1.5 (G418 selection); assay: Whole-cell patch-clamp electrophysiology in HEK293 cells stably expressing NaV1.5 (HEK-NaV1.5); assay type: cell-based; settings: HEK-NaV1.5 cells, 500 nM peptide vs control
Sequence (Q14524 whole entry): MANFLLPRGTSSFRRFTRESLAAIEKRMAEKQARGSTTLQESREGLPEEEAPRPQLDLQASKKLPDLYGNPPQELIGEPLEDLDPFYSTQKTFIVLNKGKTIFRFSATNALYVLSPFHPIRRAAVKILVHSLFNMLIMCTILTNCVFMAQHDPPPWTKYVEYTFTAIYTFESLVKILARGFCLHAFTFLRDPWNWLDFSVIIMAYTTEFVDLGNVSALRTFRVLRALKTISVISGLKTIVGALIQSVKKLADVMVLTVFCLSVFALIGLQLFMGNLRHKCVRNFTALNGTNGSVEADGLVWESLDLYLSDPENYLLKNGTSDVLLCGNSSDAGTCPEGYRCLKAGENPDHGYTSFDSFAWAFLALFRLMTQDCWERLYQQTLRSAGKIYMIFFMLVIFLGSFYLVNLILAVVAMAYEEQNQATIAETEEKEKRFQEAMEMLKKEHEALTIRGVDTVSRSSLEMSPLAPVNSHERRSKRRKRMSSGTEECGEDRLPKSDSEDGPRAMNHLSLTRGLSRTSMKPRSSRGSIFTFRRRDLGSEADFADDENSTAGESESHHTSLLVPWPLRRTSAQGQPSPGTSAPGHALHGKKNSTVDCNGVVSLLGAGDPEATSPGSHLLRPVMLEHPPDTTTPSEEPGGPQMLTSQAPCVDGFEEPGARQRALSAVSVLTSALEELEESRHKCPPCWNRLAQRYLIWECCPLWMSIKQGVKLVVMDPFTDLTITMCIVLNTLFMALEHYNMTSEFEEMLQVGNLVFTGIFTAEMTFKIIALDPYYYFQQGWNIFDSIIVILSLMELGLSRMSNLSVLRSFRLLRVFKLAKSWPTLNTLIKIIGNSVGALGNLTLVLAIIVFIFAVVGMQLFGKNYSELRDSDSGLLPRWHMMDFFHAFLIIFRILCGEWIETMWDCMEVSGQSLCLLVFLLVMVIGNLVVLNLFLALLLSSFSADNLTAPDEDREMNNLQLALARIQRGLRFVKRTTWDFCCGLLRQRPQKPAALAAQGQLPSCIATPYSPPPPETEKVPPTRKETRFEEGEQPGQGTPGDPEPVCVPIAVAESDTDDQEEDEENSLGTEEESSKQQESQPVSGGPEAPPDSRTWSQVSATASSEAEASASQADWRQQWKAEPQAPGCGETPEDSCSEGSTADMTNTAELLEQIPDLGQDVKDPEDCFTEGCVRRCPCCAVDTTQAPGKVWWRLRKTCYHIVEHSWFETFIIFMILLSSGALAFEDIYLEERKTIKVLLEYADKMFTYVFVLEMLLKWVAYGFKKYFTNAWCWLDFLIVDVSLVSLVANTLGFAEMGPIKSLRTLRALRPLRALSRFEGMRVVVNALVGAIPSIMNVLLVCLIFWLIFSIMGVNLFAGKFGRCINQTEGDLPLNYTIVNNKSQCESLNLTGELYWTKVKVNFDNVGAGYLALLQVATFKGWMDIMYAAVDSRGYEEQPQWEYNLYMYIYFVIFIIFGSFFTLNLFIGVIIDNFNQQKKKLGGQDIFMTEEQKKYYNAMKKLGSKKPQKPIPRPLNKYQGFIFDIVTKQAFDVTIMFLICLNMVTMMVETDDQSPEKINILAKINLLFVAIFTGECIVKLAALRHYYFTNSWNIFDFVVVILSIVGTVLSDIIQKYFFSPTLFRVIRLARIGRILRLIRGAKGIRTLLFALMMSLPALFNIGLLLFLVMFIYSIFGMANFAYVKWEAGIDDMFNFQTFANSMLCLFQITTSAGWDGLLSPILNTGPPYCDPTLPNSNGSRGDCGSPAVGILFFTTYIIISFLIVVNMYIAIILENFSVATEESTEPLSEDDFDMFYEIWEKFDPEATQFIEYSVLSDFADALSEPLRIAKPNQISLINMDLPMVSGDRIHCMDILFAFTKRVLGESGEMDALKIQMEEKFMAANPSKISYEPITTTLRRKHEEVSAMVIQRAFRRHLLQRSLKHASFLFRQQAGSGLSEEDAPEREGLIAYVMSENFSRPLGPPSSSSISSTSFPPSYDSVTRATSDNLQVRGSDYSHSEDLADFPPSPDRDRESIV
result-type: effect on NaV1.5 currents

• IGEKVTIRLITSTNINDDFNIYQQKPGEPPKLL (Synthetic Peptide 7) = no effects
• DCLGFMRKCLSTTDLDDDWNCCRPNLVCSRTHKWCKYVF (Synthetic Peptide 8) = no effects
• SDEIPATFGGGTDAGL (Synthetic Peptide 1) = no effects
